# protocol-text: ICB984 medulloblastoma cell growth inhibition, synergistic combos for chromothripsis tumors, cisplatin or BGB combos (AID 1671451);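 also: cells exposed for 96 hours before readout; 0% = vehicle DMSO and 100% = killing by high DMSO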
# condition-details: ICB984 medulloblastoma cells, drug combinations, BGB IC40 combo, at 0.05 µM, stronger effect = higher value
measure-name: inhibition (%)
Answers are plain numbers, in %.

Worked examples, 4 compounds total:
CCN(CC)CCCC(C)Nc1c2ccc(Cl)cc2nc2ccc(OC)cc12 (stereo not given); 90.3
CCn1cc(C(=O)O)c(=O)c2cc(F)c(N3CCNCC3)cc21; -41.7
CC(=O)OCC(CCn1cnc2cnc(N)nc21)COC(C)=O; -14.6
O=C1c2c(O)ccc(O)c2C(=O)c2c(NCCNCCO)ccc(NCCNCCO)c21; 101

Lab book: inhibition of `O=C(O)CCCc1ccccc1` noted as 6.23

====

Hi there, I'd appreciate the recorded z-score for every entry that follows.
# protocol-text: modulators of glucocorticoid suppression of NF-kB, cell-based, luciferase, IL-1B stimulus, dexamethasone (AID 624486)
# condition-details: NF-kB luciferase reporter, IL-1B + dexamethasone, luminescence; measured here: IL-1B alone, no Dex
Answers are plain numbers.

O=c1c(Oc2ccc(F)cc2F)cc2cnc(NC3CCOCC3)nc2n1CCCO; -0.815
N#Cc1c(NC(=O)CN2CCOCC2)sc2c1CCCC2; -0.1
COc1cc(F)c(F)cc1C(=O)c1cnc(NC2CCN(S(C)(=O)=O)CC2)nc1N; -1.08
O=C1NC(=O)C(N2CCc3ccccc32)=C1c1ccc(Cl)cc1; -1.47
O=C1NC(=NCc2ccccn2)SC1=Cc1ccc2ncccc2c1; 0.165

Let us examine a further case.
Query `Cn1cc(C2=C(c3ccccc3)C(=O)NC2=O)c2ccccc21` yields z-score of -0.33

====

# protocol-text: differential killing of epithelial or mesenchymal cells, primary screen, imaging, PC-3E GFP, TEM4-18 mCherry, co-culture (AID 1345086);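 also: cells exposed to compound for 72 h before imaging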
# condition-details: imaging cell counts, measured here: mesenchymal TEM4-18 mCherry cell survival, at 1 µM
normalised cell number vs 1: less than gives Satisfied; not less than gives Not satisfied.

Below, 3 compounds whose answers are already recorded.
Cc1nc2ccccn2c(=O)c1CCN1CCC(C(=O)c2ccc(F)cc2)CC1; Not satisfied
O=C(CCCN1CC=C(n2c(=O)[nH]c3ccccc32)CC1)c1ccc(F)cc1; Satisfied
CCCSc1ccc2nc(NC(=O)OC)[nH]c2c1; Satisfied

Prompt line: Is the reported normalised cell number for `CCOC(=O)N1CCC(=C2c3ccc(Cl)cc3CCc3cccnc32)CC1` strictly below 1?
Response line: Not satisfied

====

# protocol-text: modulators of glucocorticoid suppression of NF-kB, cell-based, luciferase, IL-1B stimulus, dexamethasone (AID 624486)
# condition-details: NF-kB luciferase reporter, IL-1B + dexamethasone, luminescence; measured here: IL-1B alone, no Dex
z-score vs 0.6: less than gives 1.0; not less than gives 0.0.

Prompt line: Below 0.6 on z-score? Entry `CNC(=O)c1cncc(/C=C/c2c(C)cccc2C)c1`
Response line: 1.0

Prompt line: A record lists `CCc1cccc(NC(=O)Nc2ccc(Oc3ccc4nc(NC(=O)OC)[nH]c4c3)cc2)c1` . Is its z-score below 0.6?
Response line: 1.0

Prompt line: Problem: For the compound `CS(=O)(=O)c1ccc(Oc2nccc(-c3c(-c4ccc(F)cc4)ncn3C3CCNCC3)n2)cc1` , is z-score under 0.6?
Response line: 1.0

Prompt line: Is the reported z-score for `O=C1NC(=NCCc2ccc(Cl)cc2)SC1=Cc1ccc2ncccc2c1` strictly below 0.6?
Response line: 1.0

Prompt line: Hello, I'm reviewing records and need to know if z-score of `O=C1NC(=NCCCc2ccccc2)SC1=Cc1ccc2ncccc2c1` is below 0.6. Could you check?
Response line: 1.0

Prompt line: API: query returns whether the compound falls strictly under 0.6 in z-score. Query: `COc1ccccc1Nc1ncc(-c2ccccc2)o1`
Response line: 0.0

Prompt line: Decide: z-score of `O=C1NC(=NCc2ccccc2Cl)SC1=Cc1ccc2ncccc2c1` strictly below 0.6?
Response line: 1.0

Prompt line: Consider `CCn1c(-c2nonc2N)nc2cncc(C(=O)N3CC[C@H](N)C3)c21` . Does its z-score lie strictly below 0.6?
Response line: 1.0

Prompt line: In the record for `CON=C(c1ccccc1)c1cnn(-c2ccccc2)c1N` , is z-score less than 0.6?
Response line: 1.0

Prompt line: Quick check: z-score of `Nc1c(C(=O)c2cccc(CCCN3CCOCC3)c2)cnn1-c1ccc(F)cc1` under 0.6?
Response line: 0.0

====

# protocol-text: glucagon-like peptide 1 release enhancers, primary assay, NCI-H716 cell line, NPC library (AID 1117341)
# condition-details: NCI-H716 cells, at 10 µM, stronger effect = higher value
measure-name: GLP1 secretion stimulation (%)
One number for each entry, in %.

// worked examples, GLP1 secretion stimulation included
COc1cc2c(cc1OC)CN(C(=O)[C@H](C)N[C@@H](CCc1ccccc1)C(=O)O)[C@H](C(=O)O)C2; -1.8
O=C1Nc2ccccc2C1(c1ccc(O)cc1)c1ccc(O)cc1; 5.4
CN1[C@@H]2CC[C@H]1CC(NC(=O)n1c(=O)[nH]c3ccccc31)C2 (stereo partly specified); 2.8
Nc1ccc(S(=O)(=O)NCc2ccccc2)cc1; 0.6

Give GLP1 secretion stimulation for all molecules that follow.
1. CCCN(CCc1cccs1)[C@H]1CCc2c(O)cccc2C1
2. CC(C)=CCC/C(C)=C/CC/C(C)=C/C(=O)OCC(=O)[C@@]1(O)CC[C@H]2[C@@H]3CCC4=CC(=O)C=C[C@]4(C)[C@H]3[C@@H](O)C[C@@]21C
3. CCOC(=O)C(=O)CCc1ccccc1
4. CCCCC/C(C=O)=C\c1ccccc1
5. CC(C)[N+](C)(C)CC(O)COc1cccc2ccccc12 (stereo unspecified)
6. CO/N=C(\C(=O)O)c1csc(NC(=O)CCl)n1
7. CC(=O)SC[C@@H](Cc1ccccc1)C(=O)NCC(=O)OCc1ccccc1

Response line:
2.4
-0.8
5
0.1
3
1.7
-4.5

====

Kindly state z-score for each of the entries shown.
# protocol-text: survival rescue of mitochondrial mutant cells in low glucose, primary screen, MELAS cybrids, Rieske KO mouse fibroblasts, CellTiter-Glo (AID 1508586);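 also: z relative to plate mean and SD of compound and empty wells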
# condition-details: Rieske KO mouse fibroblast survival, CellTiter-Glo 72 h
Answers are plain numbers.

Fc1ccc(-c2ncn(C3CCNCC3)c2-c2ccnc(Oc3ccc(Oc4ccccc4)cc3)n2)cc1; -0.0474
COc1ccc(-c2nn3ncccc3c2-c2ccnc(Nc3cccc(C(F)(F)F)c3)n2)cc1; -0.239
COc1cc2ncn(-c3cc(OCc4ccccc4C(F)(F)F)c(C(=O)N(C)C)s3)c2cc1OC; -0.0859
Cc1ccc(Nc2ccnc(Nc3cccc(C(N)=O)c3)n2)cc1O; 0.472
Fc1ccc(-c2ncn(C3CCNCC3)c2-c2ccnc(Oc3ccc(F)c(F)c3)n2)cc1; -0.514
CS(=O)(=O)CCNCc1ccc(-c2ccc3ncnc(Nc4ccc(OCc5cccc(F)c5)c(C(F)(F)F)c4)c3c2)o1; -0.463

Hey, quick one: what's z-score for each of these?
1. Nc1nccc(C#Cc2cncnc2Nc2ccc(OCc3cccc(F)c3)c(Cl)c2)n1
2. C[C@@H](Oc1cc(-n2cnc3ccc(OC[C@@H](O)CO)cc32)sc1C(N)=O)c1ccccc1Cl
3. CC1(C)O[C@@H]2[C@@H](CO[C@@]3(COS(N)(=O)=O)OC(C)(C)O[C@@H]23)O1
4. O=C1NC(=O)C(c2ccc(Cl)cc2)=C1Nc1ccc(Cl)c(C(=O)O)c1
5. CCCNc1cccc(-n2ncc3c(N/N=C/c4ccncc4)ncnc32)c1
6. COc1ccccc1Oc1nccc(-c2c(-c3ccc(F)cc3)ncn2C2CCNCC2)n1
7. CC(=O)NCc1cccc(C#Cc2cncnc2Nc2ccc(OCc3cccc(F)c3)c(Cl)c2)c1

Response line:
[0.011, 0.965, 0.627, -0.308, -0.108, -0.367, -0.0459]

Count: 8. Required value per item: z-score.
1. CNC(=O)c1cncc(/C=C/c2ccccc2C)c1
2. CC1(C)CC(n2cnc(-c3ccc(F)cc3)c2-c2ccnc(N)n2)CC(C)(C)N1
3. Nc1ncnc2occ(-c3ccc(NC(=O)Nc4cccc(C(F)(F)F)c4)cc3)c12
4. O=S1CCN(Cc2ccc(-c3ccc4ncnc(Nc5ccc(OCc6cccc(F)c6)c(Cl)c5)c4c3)o2)CC1
5. CC(C)COC(=O)c1ccc2[nH]c(O)c(C=Nc3ccc(S(N)(=O)=O)cc3)c2c1
6. N[C@@H]1CONC1=O
7. CCn1c(-c2nonc2N)nc2ccncc21
8. CCC(=O)Nc1ccc(C)c(-c2ccc(C(=O)NCC3CC3)cc2)c1

Response line:
1: -0.131; 2: 0.00971; 3: -0.452; 4: -0.225; 5: 0.112; 6: 0.724; 7: -0.472; 8: -0.287

====

# protocol-text: modifiers of HSF1 nuclear foci, imaging, Selleck Cancer Library (AID 1347162)
# condition-details: human cells, at 10 µM; measured here: HSF1 foci SSMD mean
measure-name: SSMD

Please review the entries below; each comes with its answer.
CN(CCOc1ccc(CC2SC(=O)NC2=O)cc1)c1ccccn1 (stereo not given); 2.43
CCn1c(-c2nonc2N)nc2cnc(Oc3cccc(NC(=O)c4ccc(OCCN5CCOCC5)cc4)c3)cc21; 0.629
O=C1c2c(O)ccc(O)c2C(=O)c2c(NCCNCCO)ccc(NCCNCCO)c21; -1.6
O=C(O)CCCc1ccccc1; 2.46

For record `NC(=O)c1ccc(-c2nc(-c3ccc4c(c3)OCO4)c(-c3ccccn3)[nH]2)cc1` the listed SSMD is 0.986
